Where do these numbers come from? They come from paper PMC10397247.

# Experimental Target: T1, 4H1449-AA
# T1 chain: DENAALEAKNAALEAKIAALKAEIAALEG
# Test Description: two-hybrid library CCmax;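 note: natural log of median RNA to DNA barcode read ratio; higher means stronger binding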
# Measurement Setup: mean of both orientations
Please go through the items and note down their interaction score.
Give bare numbers.

1. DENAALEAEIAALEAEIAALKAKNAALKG [4H1040-AA] :: 0.618

For every listed record, write down its interaction score.
1. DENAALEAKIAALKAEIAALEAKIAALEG [4H1349-AA]
2. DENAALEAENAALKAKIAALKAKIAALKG [4H1262-AA]
3. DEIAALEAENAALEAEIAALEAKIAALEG [4H133-AA]
4. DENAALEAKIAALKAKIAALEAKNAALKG [4H1384-AA]

RESULT:
1: -0.154; 2: -0.611; 3: 0.176; 4: -1.1
